# pEC50 listing for each entry below
target: human TLR7 (Homo sapiens); construct: TLR7 in pUNO vector, blasticidin selection; assay: Human TLR7 Assay (SEAP reporter in HEK293 cells); conditions: HEK293 cell line expressing human TLR7 and pNiFty2-SEAP reporter, overnight incubation at 37° C., 0.1% DMSO; read-out: hTLR7 EC50
Sequence (Q9NYK1 27-1049): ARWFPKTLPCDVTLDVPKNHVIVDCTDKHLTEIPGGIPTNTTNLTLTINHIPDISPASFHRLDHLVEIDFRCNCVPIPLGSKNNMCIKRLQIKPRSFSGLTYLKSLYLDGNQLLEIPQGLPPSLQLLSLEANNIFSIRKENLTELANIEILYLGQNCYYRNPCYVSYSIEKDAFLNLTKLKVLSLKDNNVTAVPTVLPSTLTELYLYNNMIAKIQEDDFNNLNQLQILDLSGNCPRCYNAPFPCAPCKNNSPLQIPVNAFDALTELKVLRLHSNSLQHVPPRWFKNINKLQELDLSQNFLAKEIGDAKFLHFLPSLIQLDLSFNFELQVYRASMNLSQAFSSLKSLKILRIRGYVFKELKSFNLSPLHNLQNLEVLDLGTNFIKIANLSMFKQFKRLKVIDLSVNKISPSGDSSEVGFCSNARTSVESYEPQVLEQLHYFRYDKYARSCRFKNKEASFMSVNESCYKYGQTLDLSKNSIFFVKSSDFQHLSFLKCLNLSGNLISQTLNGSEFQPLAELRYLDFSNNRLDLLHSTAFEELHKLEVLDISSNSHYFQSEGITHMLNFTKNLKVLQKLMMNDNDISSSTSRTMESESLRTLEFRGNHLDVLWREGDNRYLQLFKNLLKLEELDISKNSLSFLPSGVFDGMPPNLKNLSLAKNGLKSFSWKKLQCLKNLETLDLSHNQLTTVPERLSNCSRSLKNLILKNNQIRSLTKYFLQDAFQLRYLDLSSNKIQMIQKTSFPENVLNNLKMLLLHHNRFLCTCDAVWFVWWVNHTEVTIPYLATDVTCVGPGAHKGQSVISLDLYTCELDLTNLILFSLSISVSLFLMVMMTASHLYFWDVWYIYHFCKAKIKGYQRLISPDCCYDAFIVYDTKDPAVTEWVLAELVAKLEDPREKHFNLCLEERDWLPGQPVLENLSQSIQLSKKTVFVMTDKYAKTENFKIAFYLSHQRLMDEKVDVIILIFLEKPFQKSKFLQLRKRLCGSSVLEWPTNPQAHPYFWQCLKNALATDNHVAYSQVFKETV
pEC50: −log10 of the molar value.
readout kind: pEC50

1. COCCc1nc2c(N)nc3ccccc3c2n1CCCCN(CCCN1CCOCC1)Cc1cccc(OCC(=O)OC(C)C)c1 :: 6.94
2. CCCCc1nc2c(N)nc3ccccc3c2n1CCCN(Cc1ccc(OCC(=O)OC)cc1)C(=O)CN1CCN(CCOC)CC1 :: 6.04
3. CCN(CC)CC(=O)N(CCCn1c(CCOC)nc2c(N)nc3ccccc3c21)Cc1cccc(OCC(=O)OC(C)C)c1OC :: 7.09
4. CCCCc1nc2c(N)nc3ccccc3c2n1CCCN(Cc1cccc(OCC(=O)OC)c1)C(=O)CN1CCN(CCOC)CC1 :: 6.36
5. CCOC(=O)COc1cccc(CN(CCCn2c(CCOC)nc3c(N)nc4ccccc4c32)C(=O)CN(CC)CC)c1 :: 7.23
6. CCN(CC)CC(=O)N(CCCn1c(CCOC)nc2c(N)nc3ccccc3c21)Cc1ccc(OC)c(OCC(=O)OC)c1 :: 6.67
7. CCN(CC)CC(=O)N(CCCn1c(CCOC)nc2c(N)nc3ccccc3c21)Cc1cccc(OC(C)(C)C(=O)OC)c1 :: 7.48
8. CCN(CC)CC(=O)N(CCCn1c(CCOC)nc2c(N)nc3ccccc3c21)Cc1cccc(OCC(=O)OCC(C)C)c1 :: 7.30
9. CCOC(=O)COc1cccc(CN(CCCCn2c(CCOC)nc3c(N)nc4ccccc4c32)C(=O)NCCN2CCCCC2)c1 :: 7.33
10. CCOCc1nc2c(N)nc3ccccc3c2n1CCCN(Cc1cccc(OC(C)(C)C(=O)OC)c1)C(=O)CN(CC)CC :: 6.76
11. CCCCc1nc2c(N)nc3ccccc3c2n1CCCN(Cc1cccc(OC(C)(C)C(=O)OC)c1)C(=O)CN(C)C :: 6.77
12. CCOC(=O)COc1cccc(CN(CCCn2c(CCOC)nc3c(N)nc4ccccc4c32)C(=O)CN2CCCC2)c1 :: 6.83
13. COCCc1nc2c(N)nc3ccccc3c2n1CCCN(Cc1cccc(OCC(=O)OC(C)C)c1)C(=O)CN1CCOCC1 :: 6.12
14. CCOC(=O)COc1cccc(CN(CCCn2c(CCOC)nc3c(N)nc4ccccc4c32)C(=O)CN(CC)CC)c1F :: 7.13
15. COCCc1nc2c(N)nc3ccccc3c2n1CCCCN(CCN(C)C)Cc1cccc(OCC(=O)OC(C)C)c1 :: 7.25
16. CCOC(=O)COc1cc(CN(CCN2CCCCC2)C(=O)NCCCCn2c(CCOC)nc3c(N)nc4ccccc4c32)ccc1F :: 7.31
17. COCCc1nc2c(N)nc3ccccc3c2n1CCCN(Cc1cccc(OCC(=O)OC)c1)C(=O)CN1CCN(C)CC1 :: 5.89
18. CCOC(=O)COc1cccc(CN(CCCCn2c(CCOC)nc3c(N)nc4ccccc4c32)C(=O)CN(CC)CC)c1 :: 7.64
19. COCCc1nc2c(N)nc3ccccc3c2n1CCCN(Cc1cccc(OCC(=O)OC)c1)C(=O)CN(C)C :: 6.46
20. COCCc1nc2c(N)nc3ccccc3c2n1CCCN(Cc1cccc(OCC(=O)OC(C)C)c1)C(=O)CN(C)CCOC :: 6.76
21. CCOC(=O)COc1cccc(CN(CCCn2c(CCOC)nc3c(N)nc4ccccc4c32)C(=O)CN(CC)CC)c1OC :: 7.02
22. CCCCc1nc2c(N)nc3ccccc3c2n1CCCN(Cc1cccc(OCC(=O)OC)c1)C(=O)CN(CC)CC :: 7.13
23. CCOC(=O)COc1cc(CN(CCCn2c(CCOC)nc3c(N)nc4ccccc4c32)C(=O)CN(CC)CC)ccc1F :: 7.03
24. CCOCc1nc2c(N)nc3ccccc3c2n1CCCN(Cc1cccc(OCC(=O)OC(C)C)c1)C(=O)CN1CCCC1 :: 6.36
25. CCOC(=O)COc1cc(CN(CCCCn2c(CCOC)nc3c(N)nc4ccccc4c32)C(=O)NCCN2CCCCC2)ccc1F :: 7.10
26. CCCCc1nc2c(N)nc3ccccc3c2n1CCCN(Cc1cccc(OCC(=O)OC)c1)C(=O)CN1CCCC1 :: 6.87

* * *

system: Male Brown Norway rats; experiment: Antigen-induced pulmonary inflammation in a rat asthma model (eosinophils and Th2 cytokines in BALF); format: in vivo; settings: 1.0 mg/kg intratracheally 24 hours before and 24 hours after OVA-challenge, BALF 48 hours after challenge
readout kind: IL-13 in BALF, inhibition (%) to OVA-Challenge control

1. CCCCc1nc2c(N)nc3ccccc3c2n1CCCN(Cc1cccc(OCC(=O)OC)c1)C(=O)CN(C)C [Example 9] :: 85
2. CCN(CC)CC(=O)N(CCCn1c(CCOC)nc2c(N)nc3ccccc3c21)Cc1cccc(OC(C)(C)C(=O)OC)c1 [Example 56] :: 98
3. CCN(CC)CC(=O)N(CCCn1c(CCOC)nc2c(N)nc3ccccc3c21)Cc1cccc(OCC(=O)OC2CCCC2)c1 [Example 80] :: 83
4. CCN(CC)CC(=O)N(CCCn1c(CCOC)nc2c(N)nc3ccccc3c21)Cc1cccc(OCC(=O)OC(C)C)c1F [Example 94] :: 82
5. CCN(CC)CC(=O)N(CCCn1c(CCOC)nc2c(N)nc3ccccc3c21)Cc1cccc(OCC(=O)OC(C)C)c1 [Example 27] :: 88

* * *

# EC50 listing for each entry below
target: human TLR7 (Homo sapiens); construct: TLR7 in pUNO vector, blasticidin selection; assay: Human TLR7 Assay (SEAP reporter in HEK293 cells); conditions: HEK293 cell line expressing human TLR7 and pNiFty2-SEAP reporter, overnight incubation at 37° C., 0.1% DMSO; read-out: hTLR7 EC50;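 further: Read-out is secreted alkaline phosphatase made under an NFkB/ELAM-1 composite promoter, reporting TLR7-triggered NFkB activation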
readout kind: EC50 (µM)

1. CCCOC(=O)COc1cccc(CN(CCCn2c(CCOC)nc3c(N)nc4ccccc4c32)C(=O)CN(CC)CC)c1 :: 0.0546
2. CCN(CC)CC(=O)N(CCCn1c(CCOC)nc2c(N)nc3ccccc3c21)Cc1cc(F)cc(OCC(=O)OC(C)C)c1 :: 0.0502
3. CCCCc1nc2c(N)nc3ccccc3c2n1CCCN(Cc1cccc(OC(C)(C)C(=O)OCC)c1)C(=O)CN1CCCC1 :: 0.166
4. CCOC(=O)C(C)Oc1cccc(CN(CCCn2c(CCOC)nc3c(N)nc4ccccc4c32)C(=O)CN(CC)CC)c1 (stereo not shown) :: 0.0242
5. CCOC(=O)COc1cccc(CN(CCCn2c(CCOC)nc3c(N)nc4ccccc4c32)C(=O)CN2CCCCC2)c1 :: 0.177
6. COCCc1nc2c(N)nc3ccccc3c2n1CCCN(Cc1cccc(OCC(=O)OC(C)C)c1F)C(=O)CN(C)C :: 0.304
7. COCCc1nc2c(N)nc3ccccc3c2n1CCCN(Cc1ccc(OC)c(OCC(=O)OC(C)C)c1)C(=O)CN(C)C :: 0.405
8. CCOC(=O)C(C)(C)Oc1cccc(CN(CCCn2c(CCOC)nc3c(N)nc4ccccc4c32)C(=O)CN(C)C)c1 :: 0.115
9. CCCCc1nc2c(N)nc3ccccc3c2n1CCCN(Cc1cccc(OCC(=O)OC(C)C)c1)C(=O)CN(CC)CC :: 0.1
10. CCOC(=O)C(C)(C)Oc1cccc(CN(CCCCn2c(CCOC)nc3c(N)nc4ccccc4c32)CCCN2CCOCC2)c1 :: 0.111
11. CCN(CC)CC(=O)N(CCCCn1c(CCOC)nc2c(N)nc3ccccc3c21)Cc1cccc(OCC(=O)OC(C)(C)C)c1 :: 0.0247
12. CCCCc1nc2c(N)nc3ccccc3c2n1CCCN(Cc1cccc(OCC(=O)OC(C)C)c1F)C(=O)CN(C)C :: 0.297
13. CCOC(=O)COc1cc(CN(CCCn2c(CCOC)nc3c(N)nc4ccccc4c32)C(=O)CN(CC)CC)ccc1C :: 0.0273
14. CCOCc1nc2c(N)nc3ccccc3c2n1CCCN(Cc1cccc(OCC(=O)OC(C)C)c1F)C(=O)CN(CC)CC :: 0.475
15. COCCc1nc2c(N)nc3ccccc3c2n1CCCN(Cc1cccc(OCC(=O)OC(C)C)c1)C(=O)CN(C)C :: 0.0834
16. CCN(CC)CC(=O)N(CCCn1c(CCOC)nc2c(N)nc3ccccc3c21)Cc1ccc(OC)c(OCC(=O)OC(C)C)c1 :: 0.0558
17. CCCCc1nc2c(N)nc3ccccc3c2n1CCCN(Cc1ccc(OCC(=O)OC)cc1)C(=O)CN1CCN(C)CC1 :: 0.633
18. CCN(CC)CC(=O)N(CCCn1c(CCOC)nc2c(N)nc3ccccc3c21)Cc1cccc(OCC(=O)OCCOC)c1 :: 0.174
19. CCN(CC)CC(=O)N(CCCn1c(CCOC)nc2c(N)nc3ccccc3c21)Cc1ccc(OCC(=O)OC)cc1 :: 0.0845
20. CCN(CC)CC(=O)N(CCCn1c(CCOC)nc2c(N)nc3ccccc3c21)Cc1cccc(OCC(=O)OCCO)c1 :: 1.46
21. COCCc1nc2c(N)nc3ccccc3c2n1CCCCN(Cc1ccc(F)c(OCC(=O)OC(C)C)c1)C(=O)NCCN1CCCCC1 :: 0.057
22. COCCc1nc2c(N)nc3ccccc3c2n1CCCN(Cc1cccc(OCC(=O)OC2CCCC2)c1)C(=O)CN(C)C :: 0.128
23. CCCc1nc2c(N)nc3ccccc3c2n1CCCN(Cc1cccc(OCC(=O)OC(C)C)c1)C(=O)CN(CC)CC :: 0.26
24. CCN(CC)CC(=O)N(CCCn1c(CCOC)nc2c(N)nc3ccccc3c21)Cc1cccc(OCC(=O)OC(C)C)c1 :: 0.0661
25. CCOC(=O)C(CC)Oc1cccc(CN(CCCn2c(CCOC)nc3c(N)nc4ccccc4c32)C(=O)CN(CC)CC)c1 (stereo not shown) :: 0.023
26. COCCc1nc2c(N)nc3ccccc3c2n1CCCCN(CCCN1CCOCC1)Cc1cccc(OC(C)(C)C(=O)OC)c1 :: 0.0877
